- PROCEDURE_TEXT: qHTS assay for small molecules that induce genotoxicity in human embryonic kidney cells expressing luciferase-tagged ATAD5 - cell viability (AID 651634); note: nearly all actives have a fitted effect of over 25% in size
- CONDITION_INFO: HEK293T ATAD5-luc cells viability, CellTiter-Fluor, 15.5 h; series mostly up to 83.3 µM
Results filed as inconclusive are left out. The source made the active and inactive calls. Calls come from the whole dose curve.
Outcome codes: True = active, False = inactive

COMPOUND	GROUP
CO[C@H]1C[C@H](O[C@H]2[C@H](C)[C@@H](O[C@@H]3O[C@H](C)C[C@H](N(C)C)[C@H]3OC(C)=O)[C@@H](C)C[C@]3(CO3)C(=O)[C@H](C)[C@@H](OC(C)=O)[C@@H](C)[C@@H](C)OC(=O)[C@@H]2C)O[C@@H](C)[C@@H]1OC(C)=O	False
CCN(CC)CCCC(C)Nc1cc(/C=C/c2ccccc2Cl)nc2cc(Cl)ccc12 (stereo not given)	False
COCC(=O)Nc1cc(Sc2ccccc2)ccc1N=C(NC(=O)OC)NC(=O)OC	True
CCCC1C(=O)N2C(N(C)C)=Nc3ccc(C)cc3N2C1=O (stereo not given)	False
Nc1ncnc2c1ncn2CCOCP(=O)(O)O	False
CCCCCC(O)/C=C/C=O (stereo not given)	False
COc1cc2[nH]c(C)c(CCN3CCN(c4ccccc4)CC3)c2cc1OC	False
CCOC(=O)c1cc(-c2ccccc2)nc2ccc(C)cc12	False
CCc1ccc(S(=O)(=O)O)cc1	False
O=C(O)c1cccc(/C=C2/C[C@@H]3[C@@H](/C=C/[C@@H](O)C4CCCCC4)[C@H](O)C[C@@H]3O2)c1	False
CC(=O)Nc1c(I)c(C(=O)O)c(I)c(N(C)C(C)=O)c1I	False
CCCCCCCCCCCCCCCCCC(=O)OCCO	False
CCCCCCCCCCCCCCCC(=O)OC[C@@H](COP(=O)([O-])OCC[N+](C)(C)C)OC(=O)CCCCCCCCCCCCCCC	False
CCCCOC(=O)C(=O)Nc1cccc(-c2nn[nH]n2)c1	False
COC(=O)CCC[N+](C)(C)C	False
O=C(O)c1ccc(NC(=O)[C@H](Cc2ccc(O)cc2)NC(=O)c2ccccc2)cc1	False
CCCCCCCCCCCCOCCCN	False
CC1(C)S[C@@H]2[C@H](NC(=O)C3(N)CCCCC3)C(=O)N2[C@H]1C(=O)O	False
CCOC(=O)CCC(=O)O[C@H]1[C@H](O[C@@H]2[C@@H](C)[C@H](O[C@H]3C[C@@](C)(OC)[C@@H](O)[C@H](C)O3)[C@@H](C)C(=O)O[C@H](CC)[C@@](C)(O)[C@H](O)[C@@H](C)C(=O)[C@H](C)C[C@@]2(C)O)O[C@H](C)C[C@@H]1N(C)C	False
N=C(N)c1ccc(OCCCOc2ccc(C(=N)N)cc2Br)c(Br)c1	False
COC1=C(C(=O)O)N2C(=O)[C@@H](NC(=O)[C@H](N)C3=CCC=CC3)[C@H]2SC1	False
CCCCCCCN(CC)CCCC(O)c1ccc(NS(C)(=O)=O)cc1 (stereo not given)	False
CC(C(=O)O)c1ccc(N2Cc3ccccc3C2=O)cc1 (stereo not given)	False
C[C@H](CCCC(C)(C)O)[C@H]1CC[C@H]2[C@@H]3CC=C4C[C@@H](O)CC[C@]4(C)[C@H]3CC[C@]12C	False
CC(Oc1ccccc1)C(=O)N[C@@H]1C(=O)N2[C@@H]1SC(C)(C)[C@@H]2C(=O)O (stereo not given in full)	False
CC1=C(/C=C/C(C)=C/C=C/C(C)=C/C(=O)Oc2c(C)c(C)c3c(c2C)CC[C@@](C)(CCC[C@H](C)CCC[C@H](C)CCCC(C)C)O3)C(C)(C)CCC1	False
Nc1nc2[nH]cc(CCc3ccc(C(=O)N[C@@H](CCC(=O)O)C(=O)O)cc3)c2c(=O)[nH]1	False
CCC(=O)c1ccc2c(c1)N(CCCN1CCN(CCO)CC1)c1ccccc1S2	True
CCC(=O)OCC(=O)[C@@]1(OC(=O)CC)[C@H](C)C[C@H]2[C@H]3[C@H]([C@@H](O)C[C@@]21C)[C@@]1(C)C=CC(=O)C=C1C[C@H]3Cl	False
CC(=O)O[C@H]1C[C@@]2(C)[C@@H](C[C@@H](O)[C@H]3[C@@]4(C)CC[C@@H](O)[C@@H](C)[C@@H]4CC[C@@]32C)/C1=C(\CCC=C(C)C)C(=O)O	False
CC1(O)CCC(C(C)(C)O)CC1 (stereo not given)	False
CC[C@H](C)[C@@H]1NC(=O)[C@H](Cc2ccc(O)cc2)NC(=O)[C@@H](N)CSSC[C@@H](C(=O)N2CCC[C@H]2C(=O)N[C@@H](CC(C)C)C(=O)NCC(N)=O)NC(=O)[C@H](CC(N)=O)NC(=O)[C@H](CCC(N)=O)NC1=O	False
CCC(=O)Oc1ccc2c(c1)CC[C@@H]1[C@@H]2CC[C@]2(C)[C@@H](OC(=O)CC)CC[C@@H]12	False
N#Cc1ccc2c(c1)N(CCCN1CCC(O)CC1)c1ccccc1S2	False
CC(C)(C)NCC(O)c1ccc(O)c(CO)n1 (stereo not given)	False
